Can you tell me TGI for the items I'm about to list?
# Test system: HOP-62 NSCLC
# ASSAY PROTOCOL: NCI tumour cell line growth inhibition, 48 h

Entry under review: CCOC(=O)c1c(N)sc2c1C(C(=O)OCC)CCC2 (centres undefined) . Reported TGI? > 100 µM

Thanks! And Nc1ccc(C(=O)CC2(O)C(=O)Nc3c(Cl)cc(Cl)cc32)cc1 (centres undefined) ? > 100 µM

Thanks! And COC(=O)[C@]1(C)CCC[C@@]2(C)[C@@H]3C[C@@H]4[C@H]5C[C@@]3(CC[C@@H]21)C[C@@]45C ? 32.2 µM

Thanks! And COC(=O)c1cc(C)ccc1C1CN=NC12Cc1c(C)cc(C)cc1C2=O (centres undefined) ? > 100 µM

Thanks! And COc1cc(CNC(=S)CCCCCCCCCCC(C)C)ccc1O ? > 100 µM

Thanks! And COC(=O)[C@@H]1C=C[C@H](NC(C)=O)C1 ? > 100 µM

Thanks! And COc1ccc(NC(=O)n2nc(/C=C\c3ccc(O)c(OC)c3)cc2/C=C\c2ccc(O)c(OC)c2)cc1 ? 42.8 µM

Thanks! And Cc1ccc2sc3ccc(N)cc3c(=O)c2c1 ? > 100 µM

Thanks! And CC1=CC[C@](C)(O)[C@@]2(C)CC[C@H]3C(=C(C)C)C(=O)C[C@]3(C)C[C@H]12 ? > 50 µM

* * *

# Test system: HL-60(TB) leukemia
# ASSAY PROTOCOL: NCI tumour cell line growth inhibition, 48 h
ASSAY METRIC: TGI (µM)
Write the value in µM as a bare number.

Entry under review: C/C(=C(/c1ccc(O)cc1)c1ccc(Cl)cc1)c1ccccc1 . Reported TGI? 1.71

Thanks! And O=[N+]([O-])c1ccc2c(c1)n1c(N3CCCC3)[n+]3ccccc3c1c1c3cccc[n+]3c(N3CCCC3)n21 ? 94.1

Thanks! And COc1cc(/C=C2\CN(C(=O)CCN3CCC(=NO)CC3)C/C(=C\c3cc(OC)c(OC)c(OC)c3)C2=O)cc(OC)c1OC ? 1.05

Thanks! And C=CC(OC(C)=O)c1ccc(OC(C)=O)cc1 (stereo not drawn) ? 18.6

Thanks! And C[PH+](c1nc2ccccc2nc1[PH+](C)C(C)(C)C)C(C)(C)C.C[PH+](c1nc2ccccc2nc1[PH+](C)C(C)(C)C)C(C)(C)C.[Au+].[Cl-] (stereo not drawn) ? 1.02

Thanks! And Oc1c(CN2CCCC2)cc(CSCc2ccccc2)c2cccnc12 ? 2.77

Thanks! And N=C(N)c1ccc(-c2ccc(-c3cc(Cl)cc(Cl)c3)o2)o1 ? 3.49

Thanks! And CNCCNc1nc2ccccc2c2c(=O)c3cc(OC)ccc3sc12 ? 3.6

Thanks! And COC1(OC)C=CC(=O)C=C1 ? 15.6

Thanks! And N=c1ccc2nc3c(cc(N)c4ccccc43)oc-2c1 ? 0.733

Thanks! And COC(=O)[C@]1(C)CCC[C@@]2(C)[C@@H]3C[C@@H]4[C@H]5C[C@@]3(CC[C@@H]21)C[C@@]45C ? 17.8

Thanks! And COC(=O)C(CC(=O)c1c[nH]c2ccccc12)c1c[nH]c2ccccc12 (stereo not drawn) ? 49.4

Thanks! And NC1c2c(Cl)sc(Cl)c2C(=O)C1O (stereo not drawn) ? 30.1

* * *

Can you tell me TGI for the items I'm about to list?
# System: HS 578T breast
# ASSAY PROTOCOL: NCI tumour cell line growth inhibition, 48 h

Entry under review: CN1c2ccccc2S(=O)(=O)n2c(CCc3ccccc3)nnc21 . Reported TGI? > 100 µM

Thanks! And NC(=S)N/N=C1\CCCC1C(O)(C(F)(F)Cl)C(F)(F)Cl (stereo unspecified) ? > 10 µM

Thanks! And COC(=O)c1cc(C)ccc1C1CN=NC12Cc1c(C)cc(C)cc1C2=O (stereo unspecified) ? 55.8 µM

Thanks! And COc1cc2c(c(OC)c1)C(=O)O[C@H](C)CCCC/C=C/C2 ? > 100 µM

Thanks! And CC(C)(C)C(=O)N1CCN(C=O)C1=S ? > 100 µM

Thanks! And C=CCc1ccccc1C1CC2(C(=O)OC)OC1C(C(=O)OC)=C2C(=O)OC (stereo unspecified) ? > 10 µM

* * *

Can you tell me TGI for the items I'm about to list?
# System: LXFL 529 NSCLC
# ASSAY PROTOCOL: NCI tumour cell line growth inhibition, 48 h

Request body: readout TGI, system LXFL 529 NSCLC, query ClCc1ccc(C2OCCO2)cc1 . Return the value. 37.2 µM

Thanks! And CCOC(=O)c1c(-c2ccccc2)c(C(OC(c2ccccc2)c2c(-c3ccccc3)c(C(=O)OCC)n3ccccc23)c2ccccc2)c2ccccn12 (centres undefined) ? > 100 µM

Thanks! And O=C1CCN2CCC(=O)c3c2c(cc2ccccc32)N1 ? > 100 µM

Thanks! And Cc1cccc(N=C2NC(=O)C(CC(=O)Nc3ccc(C)cc3C)S2)c1 (centres undefined) ? > 100 µM

Thanks! And Cn1c(=O)n(CC2CS2)c2ccccc21 (centres undefined) ? > 100 µM

Thanks! And O=C(CSc1nc(-c2ccccc2)c(-c2ccccc2)[nH]1)NNC(=S)Nc1ccccc1 ? > 100 µM

Thanks! And NC(=O)c1csc(C2CCC(CO)O2)n1 (centres undefined) ? > 100 µM

Thanks! And N#Cc1c(C[n+]2ccccc2)c2ccccc2oc1=O ? > 100 µM

Thanks! And Clc1ccc2ns[s+]c2c1 ? > 100 µM

Thanks! And COc1cc(C2c3cc4c(cc3[C@@H](N(C)C)[C@H]3COC(=O)C23)OCO4)cc(OC)c1O (some centres undefined) ? > 100 µM

Thanks! And CC(/C=C/NNC1=NC(c2ccccc2)C(c2ccccc2)=NN1)Sc1ccccc1N (centres undefined) ? 15.5 µM

Thanks! And Clc1ccc(-c2c(C3=NCCN3)nnn2-c2ccccc2)cc1 ? > 100 µM

Thanks! And CS(=O)(=O)NNS(=O)(=O)c1ccc(Cl)cc1 ? > 100 µM

Thanks! And CCC[CH2][Sn]1([CH2]CCC)[O]C(=O)c2ccc(N)cc2[O]1 ? 0.248 µM

* * *

Can you tell me TGI for the items I'm about to list?
# Test system: COLO 205 colon
# ASSAY PROTOCOL: NCI tumour cell line growth inhibition, 48 h
Write the value in µM as a bare number.

Request body: readout TGI, system COLO 205 colon, query Nn1c(Sc2nc3ccccc3c(=O)n2N)nc2ccccc2c1=O . Return the value. 28.8

Thanks! And Cc1c(Cl)cccc1NC(=O)/C(Cl)=C(\Cl)C(=O)O ? 21.6

Thanks! And Clc1ccc2c(c1)C(N1CCNCC1)=Nc1ccccc1O2 ? 2.67

Thanks! And CCCCN(CCCC)CCc1c(C)cc(C)c(CCN(CCCC)CCCC)c1O ? 4.14

Thanks! And COC(=O)c1cc(C)ccc1C1CN=NC12Cc1c(C)cc(C)cc1C2=O (configuration not stated) ? 31.4

Thanks! And ClCc1ccc(C2OCCO2)cc1 ? 37.8

Thanks! And CC(=O)c1cc(-c2ccccc2N)n(-c2ccc3c(c2)OCO3)c1C ? 1.32

Thanks! And COC(=O)/C=c1/c2ccccc2n2c1c1ccccc1[n+]2C ? 2.51

Thanks! And CCCCCCNC(=O)n1cc(F)c(=O)[nH]c1=O ? 18.4

* * *

# System: NCI/ADR-RES ovarian
# ASSAY PROTOCOL: NCI tumour cell line growth inhibition, 48 h
*1 amine or outer side, *2 acyl side, *3 side chain or, on linkers, in order; H or OH if unused. Where a SMILES comes first, the peptide text is derived from it. Bridges are numbered along the chain shown (N, C = ends). [ ]: non-standard residue; d: D form. ξ: configuration not given here. X35 = CC[C@H](C)[C@@H](N[*:1])[C@@H](O)CC(=O)O[C@H](C(=O)[C@H](C)C(=O)[*:2])C(C)C; NMeY = CN[C@@H](Cc1ccc(O)cc1)C(=O)O; dNMeL = CN[C@H](CC(C)C)C(=O)O; ξΔPro = O=C(O)C1C=CCN1
ASSAY METRIC: TGI

Request body: readout TGI, system NCI/ADR-RES ovarian, query CC1(C)[C@@H](OC(N)=O)C=C[C@]2(CO)[C@H]3CC[C@]4(C)[C@@H](c5ccc(=O)oc5)[C@@H](Cl)C[C@]4(O)C3=CC[C@@H]12 . Return the value. 0.0127 µM

Thanks! And COc1cc2c3c(ncc2c(OC)c1OC)-c1cc2c(cc1C3)OCO2 ? > 100 µM

Thanks! And COC(=O)[C@]1(C)CCC[C@@]2(C)[C@@H]3C[C@@H]4[C@H]5C[C@@]3(CC[C@@H]21)C[C@@]45C ? 32.1 µM

Thanks! And COc1cc(CNC(=S)CCCCCCCCCCC(C)C)ccc1O ? > 100 µM

Thanks! And Nc1cc2[nH]cnc2c(=O)[nH]1 ? > 300 µM

Thanks! And CC1CN=C(c2ccc(-c3nc(-c4ccc(C5=NCC(C)N5)cc4)nc(N(C)C)n3)cc2)N1 (stereo not drawn) ? 56.4 µM

Thanks! And N#Cc1c(N2CCN(c3ccc([N+](=O)[O-])cc3)CC2)[n+](=O)c2ccc(-c3ccc([N+](=O)[O-])cc3)cc2n1[O-] ? > 100 µM

Thanks! And CCC[CH2][Sn]1([CH2]CCC)[O]C(=O)c2ccc(N)cc2[O]1 ? 4.12 µM

Thanks! And CCN1CCCn2c(=O)[nH]c3cc(Br)cc1c32 ? > 100 µM

Thanks! And CC[C@H](C)[C@H]1NC(=O)[C@@H](NC(=O)[C@@H](CC(C)C)N(C)C(=O)C2C=CCN2)[C@@H](C)OC(=O)[C@H](Cc2ccc(OC)cc2)N(C)C(=O)[C@@H]2CCCN2C(=O)[C@H](CC(C)C)NC(=O)[C@@H](C)C(=O)[C@H](C(C)C)OC(=O)C[C@@H]1O (stereo partly drawn) (H-[ξΔPro][dNMeL]T[X35]LP[NMeY](Me); ester 3-C) ? 0.52 µM

Thanks! And CC(C(=O)O)c1ccc(-c2ccccc2)c(F)c1 (stereo not drawn) ? > 100 µM

Thanks! And CC(=O)O[C@H]1CCC2[C@@H]3CCC4NC(=O)C(C#N)C[C@]4(C)C3CC[C@@]21C (stereo partly drawn) ? > 10 µM

Thanks! And COc1cccc(C23CCCC(C2)N(C)CC3OC(=O)c2ccccc2)c1OC (stereo not drawn) ? 67.1 µM

Thanks! And Oc1c(CN2CCCC2)cc(CSCc2ccccc2)c2cccnc12 ? 0.807 µM

Thanks! And C/C(=N/NC(=S)N1CCN(C(=S)N/N=C(/C)c2ccccn2)CC1)c1ccccn1 ? > 45.8 µM

Thanks! And COc1ccccc1NC(=S)N/N=C/c1ccccn1 ? 0.237 µM

Thanks! And COc1cccc(NC(=O)CC(=O)N2N=C(C)C(N=Nc3ccc(C(=O)O)cc3)C2=O)c1 (stereo not drawn) ? > 100 µM

Thanks! And CCN(CCCl)c1cccc(NC(=O)c2ccc(C(=O)Nc3cccc(CN(C)C)c3)cc2)c1 ? > 100 µM

Thanks! And COc1ccc(OC)c(C[P+](c2ccccc2)(c2ccccc2)c2ccccc2)c1 ? > 100 µM

Thanks! And C=CCCCCn1c2ccccc2c2c(C)c3cnccc3c(C)c21 ? 33.7 µM

Thanks! And O=[N+]([O-])c1cc(F)ccc1Sc1ccccc1 ? > 10 µM

Thanks! And Cn1ccc2c(c1=O)C(=O)OC2(C)C ? > 100 µM

Thanks! And C=CCOC1(CC=C)C(=O)OC2C(O)COC21O (stereo not drawn) ? > 100 µM

Thanks! And Cn1c2ccc(C3=NCCN3)cc2c2cc(C3=NCCN3)ccc21 ? > 100 µM

Thanks! And Cc1c(C#N)c(=N)oc2ccccc12 ? > 100 µM

Thanks! And Cc1ccc2sc3ccc(N)cc3c(=O)c2c1 ? > 100 µM

Thanks! And C/C(=N\NC(=S)N1CCN(c2ccccn2)CC1)c1nccs1 ? 2.56 µM

Thanks! And Cc1nc2cccc(F)c2c(=O)n1-c1nnc(C(F)(F)F)s1 ? > 10 µM
